All figures here come from ChEMBL document CHEMBL4725388.

Entries annotated with measured pIC50
target: Protein disulfide-isomerase (Homo sapiens); assay: Inhibition of recombinant human wild-type N-terminal His-tagged PDIA1 expressed in Escherichia coli strain BL21(DE3) using bovine insulin as substrate preincubated for 1 hr followed by substrate addition
pIC50: −log10 of the molar value.

Sample answers from the record:
1) Cc1ccnc(NC(c2ccccc2C)c2ccc3cccnc3c2O)c1 (stereo not drawn) : < 4.40
2) CNC(=O)NC(c1cc(OC)c(OC)c(OC)c1)c1cc2c(cc1O)OCO2 (stereo not drawn) : < 4.40

Proceed to the following item.
# input // lookup pIC50 for Oc1ccc2ncccc2c1C(c1ccc(F)cc1)N1CCCCC1 (stereo not drawn)
# output < 4.52

====

molecular target: Protein disulfide-isomerase (Homo sapiens, UniProt P07237); experiment: Inhibition of recombinant human wild-type N-terminal His-tagged PDIA1 expressed in Escherichia coli strain BL21(DE3) using bovine insulin as substrate preincubated for 1 hr followed by substrate addition
Sequence (P07237 whole entry): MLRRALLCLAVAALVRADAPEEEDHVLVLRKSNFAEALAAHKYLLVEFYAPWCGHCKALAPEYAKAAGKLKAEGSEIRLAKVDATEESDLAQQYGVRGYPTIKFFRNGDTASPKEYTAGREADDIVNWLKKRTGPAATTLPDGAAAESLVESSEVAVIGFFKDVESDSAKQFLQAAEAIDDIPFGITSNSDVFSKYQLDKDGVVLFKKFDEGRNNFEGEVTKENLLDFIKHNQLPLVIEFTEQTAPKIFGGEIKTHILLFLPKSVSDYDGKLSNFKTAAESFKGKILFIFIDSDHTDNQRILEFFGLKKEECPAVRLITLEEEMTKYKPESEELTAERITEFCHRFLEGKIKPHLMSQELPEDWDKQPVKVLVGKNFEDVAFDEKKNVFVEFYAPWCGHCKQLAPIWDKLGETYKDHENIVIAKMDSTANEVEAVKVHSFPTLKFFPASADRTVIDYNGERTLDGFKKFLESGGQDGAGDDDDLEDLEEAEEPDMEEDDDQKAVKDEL
ENDPOINT_LABEL: pIC50
Quick note: pIC50 values are minus log10 of concentrations in mol/L.

1) COc1cc(C(c2cc3c(cc2O)OCO3)N2CCOCC2)ccc1O (configuration not stated) : 6.64
2) Cc1ccnc(NC(c2ccc(OCc3ccccc3)cc2)c2ccc3cccnc3c2O)c1 (configuration not stated) : 6.21
3) COc1ccc(C(Nc2cc(C)ccn2)c2ccc3cccnc3c2O)cc1O (configuration not stated) : 6.82
4) O=C(O)c1ccc(NC(c2ccccc2)c2ccc3cccnc3c2O)cc1 (configuration not stated) : 6.52
5) Oc1cc2c(cc1C(c1ccc(F)cc1)N1CCCCC1)OCCO2 (configuration not stated) : 6.17

# input Name the recorded pIC50 for CCc1ccc(C(Nc2ccccn2)c2ccc3cccnc3c2O)cc1 (configuration not stated) .
# output 6.77

# input Recorded pIC50 of COc1ccc(C(c2cc3c(cc2O)OCO3)N2CCOCC2)cc1 (configuration not stated) , please.
# output 6.89

# input Given the compound Oc1cc2c(cc1C(c1ccc(F)cc1)N1CCCCC1)NCC2 (configuration not stated) , what is its reported pIC50?
# output 5.15

# input Field request: pIC50 | item: Oc1c(C(c2ccc(C(F)(F)F)cc2)N2CCCCC2)ccc2ccoc12 (configuration not stated)
# output 6.52

# input Fill in the blank: the reported pIC50 of COc1cc(C(c2cc3c(cc2O)OCO3)N2CCOCC2)cc(OC)c1OC (configuration not stated) is ____.
# output 6.19

# input I'd like to know its pIC50. The compound in question is Cc1ccnc(NC(c2ccc([N+](=O)[O-])cc2)c2ccc3cccnc3c2O)c1 (configuration not stated)
# output 6.28

# input Param item = COc1ccc(C(c2cc3c(cc2O)OCO3)N2CCOCC2)cc1OC (configuration not stated) ; retrieve measured pIC50.
# output 6.52

# input Any idea what its pIC50 is? The compound is COc1cccc(C(c2cc3c(cc2O)OCO3)N2CCOCC2)c1O (configuration not stated)
# output 6.05

====

molecular target: UniProtKB P07237; experiment: Inhibition of recombinant human wild-type N-terminal His-tagged PDIA1 expressed in Escherichia coli strain BL21(DE3) using bovine insulin as substrate preincubated for 1 hr followed by substrate addition
pIC50: −log10 of the molar value.
Response key: met means pIC50 >= 6; not met means pIC50 < 6.

Worked cases, answers included:
1. CN(C)c1cccc(C(c2ccc(F)cc2)N2CCCCC2)c1O (centres undefined) : not met
2. Cc1ccnc(NC(c2ccc3cccnc3c2O)c2c(Cl)cccc2Cl)c1 (centres undefined) : not met
3. Cc1ccnc(NC(c2ccc3cccnc3c2O)c2c(F)cccc2Cl)c1 (centres undefined) : not met
4. NC(=O)NC(c1ccc(O)cc1)c1cc2c(cc1O)OCO2 (centres undefined) : not met
5. CNC(=O)NC(c1ccc(F)cc1)c1cc2c(cc1O)OCO2 (centres undefined) : not met
6. Oc1c(C(c2ccc(F)cc2)N2CCCCC2)ccc2cnccc12 (centres undefined) : met
7. Oc1ccc2[nH]ncc2c1C(c1ccc(F)cc1)N1CCCCC1 (centres undefined) : met
8. Oc1cc2c(cc1C(c1ccccc1)N1CCCCC1)OCO2 (centres undefined) : not met
9. Oc1cc2c(cc1C(c1ccc(F)cc1)N1CCOCC1)OCO2 (centres undefined) : met
10. Oc1c(C(Nc2ccccn2)c2c(Cl)cccc2Cl)ccc2cccnc12 (centres undefined) : not met

# input State whether the measured pIC50 reaches 6, counting equality as reaching it, for Oc1cc2c(cc1C(c1ccc(F)cc1)N1CCCC1)OCO2 (centres undefined)
# output met

# input Answer whether pIC50 of Oc1cc2c(cc1C(c1ccc(F)cc1)N1CCCCC1)CCC2 (centres undefined) is greater than or equal to 6.
# output not met
